experimental.system: Plasmin from human plasma (Homo sapiens)
Sequence (P00747 581-810 limits assumed): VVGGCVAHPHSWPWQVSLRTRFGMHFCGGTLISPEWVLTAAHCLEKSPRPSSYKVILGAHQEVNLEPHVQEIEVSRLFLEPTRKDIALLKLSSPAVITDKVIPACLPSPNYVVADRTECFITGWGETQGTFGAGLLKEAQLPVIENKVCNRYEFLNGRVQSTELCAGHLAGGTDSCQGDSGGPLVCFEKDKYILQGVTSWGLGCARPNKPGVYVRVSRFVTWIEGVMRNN
Sequence (P00747 98-580 partner limits assumed): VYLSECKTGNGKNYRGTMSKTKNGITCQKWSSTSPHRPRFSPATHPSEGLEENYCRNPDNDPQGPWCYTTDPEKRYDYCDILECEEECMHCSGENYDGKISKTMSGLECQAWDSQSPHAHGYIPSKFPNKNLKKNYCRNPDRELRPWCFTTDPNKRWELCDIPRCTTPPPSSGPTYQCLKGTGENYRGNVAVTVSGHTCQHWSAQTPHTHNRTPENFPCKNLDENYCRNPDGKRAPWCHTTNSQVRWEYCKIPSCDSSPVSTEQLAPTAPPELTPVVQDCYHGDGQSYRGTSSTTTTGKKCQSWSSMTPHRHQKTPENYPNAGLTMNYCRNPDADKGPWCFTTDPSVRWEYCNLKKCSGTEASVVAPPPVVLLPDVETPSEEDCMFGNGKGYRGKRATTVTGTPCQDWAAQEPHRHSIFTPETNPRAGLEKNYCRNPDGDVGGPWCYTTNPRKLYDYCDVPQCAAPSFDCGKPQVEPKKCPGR
protocol.summary: Plasmin inhibition assay with chromogenic substrate S-2251
Assay type: biochemical
test.context: ratio to Ki of monovalent AMB
endpoint.label: rp: relative potency = Ki AMB/Ki multi

{"compound": "N=C(N)c1ccc(CNC(=O)CCOCCOCCOCCOCCNC(=O)CN(CC(=O)NCCOCCOCCOCCOCCC(=O)NCc2ccc(C(=N)N)cc2)CC(=O)NCCOCCOCCOCCOCCC(=O)NCc2ccc(C(=N)N)cc2)cc1", "endpoint.label": "rp: relative potency = Ki AMB/Ki multi", "assay.value": 27.6}

(A) COCCOCCOCCOCCOCCOCCOCCOCCOCCOCCOCCOCCOCCC(=O)NCc1ccc(C(=N)N)cc1
(B) COCCOCCOCCOCCOCCOCCOCCOCCOCCOCCOCCOCCOCCOCCOCCOCCOCCOCCOCCOCCOCCOCCOCCOCCOCCC(=O)NCc1ccc(C(=N)N)cc1
(C) N=C(N)c1ccc(OCCCCCOc2ccc(C(=N)N)cc2)cc1 [Pentamidine, reference compound]
Prompt line: rank_up(items): orders items by reported rp: relative potency = Ki AMB/Ki multi in ascending numerical order. Lab note: record answer as labels in requested order.
Response line: B, A, C
